- tested.system: Neuronal acetylcholine receptor; alpha4/beta2 (Rattus norvegicus, UniProt P09483+P12390)
- Sequence (P09483 whole entry): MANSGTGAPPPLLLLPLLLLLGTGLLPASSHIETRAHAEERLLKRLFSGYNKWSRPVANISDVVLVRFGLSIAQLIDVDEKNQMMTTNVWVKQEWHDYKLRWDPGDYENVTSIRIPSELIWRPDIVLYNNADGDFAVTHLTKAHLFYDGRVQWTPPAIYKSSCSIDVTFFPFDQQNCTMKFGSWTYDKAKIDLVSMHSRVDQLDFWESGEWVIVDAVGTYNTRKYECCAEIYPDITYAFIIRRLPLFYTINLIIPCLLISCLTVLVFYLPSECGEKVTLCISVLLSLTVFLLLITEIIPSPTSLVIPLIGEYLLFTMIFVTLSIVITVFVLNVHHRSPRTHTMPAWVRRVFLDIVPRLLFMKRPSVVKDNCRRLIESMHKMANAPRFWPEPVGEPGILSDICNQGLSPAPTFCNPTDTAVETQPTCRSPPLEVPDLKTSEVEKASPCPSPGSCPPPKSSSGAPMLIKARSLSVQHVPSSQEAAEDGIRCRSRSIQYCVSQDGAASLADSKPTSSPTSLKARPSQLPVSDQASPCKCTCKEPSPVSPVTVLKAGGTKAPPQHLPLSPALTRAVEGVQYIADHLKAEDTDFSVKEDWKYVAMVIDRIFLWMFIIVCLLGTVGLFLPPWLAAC
- Sequence (P12390 whole entry): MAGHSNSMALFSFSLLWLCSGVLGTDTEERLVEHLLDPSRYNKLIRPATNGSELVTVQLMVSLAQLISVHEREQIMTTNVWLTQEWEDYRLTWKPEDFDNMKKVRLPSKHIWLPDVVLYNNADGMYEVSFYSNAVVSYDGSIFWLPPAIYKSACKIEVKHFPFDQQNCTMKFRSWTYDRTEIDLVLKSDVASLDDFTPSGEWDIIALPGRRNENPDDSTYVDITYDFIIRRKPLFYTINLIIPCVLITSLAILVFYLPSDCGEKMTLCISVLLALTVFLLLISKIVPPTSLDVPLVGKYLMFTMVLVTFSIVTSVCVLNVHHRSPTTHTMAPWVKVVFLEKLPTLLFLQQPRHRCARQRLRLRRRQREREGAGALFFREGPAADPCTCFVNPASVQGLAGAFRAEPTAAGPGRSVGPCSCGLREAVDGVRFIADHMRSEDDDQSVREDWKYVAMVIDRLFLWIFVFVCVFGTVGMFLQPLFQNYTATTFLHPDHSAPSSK
- assay: Displacement of [3H]epibatidine from rat alpha4beta2 nAChR transfected in HEK293 cells after 4 hrs by scintillation count analysis
- Type: cell-based
Ki for assorted compounds

compound | Ki
COCCO[C@H]1CC=C2CCN(C)[C@H]2C1 (racemic) | > 300 µM
O[C@H]1CC=C2CCN[C@H]2C1 (racemic) | > 300 µM
CN1CC[C@@H]2CC[C@H](O)C[C@@H]21 (racemic) | > 300 µM
O[C@H]1CC[C@H]2CCN[C@H]2C1 (racemic) | > 300 µM
